Provide the reported cAMP production with saturated glucagon peptide; test compound 10 µM of each item.
Molecular target: Human glucagon receptor (human, UniProt P47871 26-477)
Assay: cell-based or functional assay
Where no end group is shown, it is not given here. [ ]: non-standard residue; d: D form. αMePhe(2-F) = C[C@](N)(Cc1ccccc1F)C(=O)O

Consider the reported cAMP production with saturated glucagon peptide; test compound 10 µM for these binders:
binder	recorded_value
HSQGTXTSDXX (α-Me-2F-Phe at 6; Bip(OMe) at 10; Bip(2Me) at 11) [Seq. ID. No. 21: HSQGT-(α-Me-2F-Phe)-TSD-Bip(OMe)-Bip(2Me)]	12 pmol/ml/µg prt
HAQGT[αMePhe(2-F)]TSD[Bip(OMe)][Bip(2CF3)] [Seq. ID. No. 28: HAQGT-(α-Me-2F-Phe)-TSD-Bip(OMe)-Bip(2CF3)]	0 pmol/ml/µg prt
HXQGTXTSDXX (not fully specified; ACP at 2; α-Me-2F-Phe at 6; Bip(OMe) at 10; Bip(2F) at 11) [Seq. ID. No. 35: H-(ACP)-QGT-(α-Me-2F-Phe)-TSD-Bip(OMe)-Bip(2F)]	0 pmol/ml/µg prt

// batch mode: one cAMP production with saturated glucagon peptide; test compound 10 µM value per listed entry
1. HXQGTXTSDXX (not fully specified; ACP at 2; α-Me-2F-Phe at 6; Bip(OMe) at 10; Bip(Pyr) at 11) [Seq. ID. No. 34: H-(ACP)-QGT-(α-Me-2F-Phe)-TSD-Bip(OMe)-Bip(Pyr)]
2. HAQGTFTSD[Bip(OMe)][Bip(Pyr)] [Seq. ID. No. 10: HAQGTFTSD-Bip(OMe)-Bip(Pyr)]

RESULT:
1. 0 pmol/ml/µg prt
2. 2 pmol/ml/µg prt
